- assay.target: human Aurora Kinase A - serine/threonine-protein Kinase 6 (AurA), AURKA (gene 6790)
- assay.text: NVS_ENZ_hAurA: NovaScreen (NVS) Enzymatic Assay for human Aurora Kinase A - serine/threonine-protein Kinase 6 (AurA) (AID 2283142)
Records with an inconclusive call do not appear. Activity calls are given as the source filed them. Rule for the calls: active = hit-call score of the fitted dose curve at least 0.9, where 1 is the maximum; inconclusive = response in the unintended direction; inactive = score below 0.9.
endpoint: outcome

item_smiles=Fc1ccc(Oc2ccnc3cc(Cl)cc(Cl)c23)cc1 result=inactive
item_smiles=CNC(=S)S result=inactive
item_smiles=N#Cc1cc(Br)c(O)c(Br)c1 result=inactive
item_smiles=Oc1ccccc1-c1ccccc1 result=inactive
item_smiles=CCCN(CCC)c1c([N+](=O)[O-])cc(S(N)(=O)=O)cc1[N+](=O)[O-] result=inactive
